Please go through the items and note down their composite z-score.
# assay-explanation: small-molecule binders of probe aNOTCH2, primary screen, biochemical, small-molecule microarray, 635/667 nm fluorescence (AID 1121);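 also: score merges feature fluorescence read at 667 nm with its signal to noise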
# assay-setup: higher = more signal
Answers are plain numbers.

Here are 5 compounds together with their reported answers.
COc1cc(CO)cc(I)c1O[C@H]1C=C(C(=O)NCCO)C[C@@H](N(Cc2ccc(F)cc2)C(=O)C2CCCO2)[C@@H]1O (stereo partly specified)
-0.0781
COc1ccc(C(O)C2C=CC3C(=O)N(c4ccccc4)C(=O)C3N2Nc2ccccc2)cc1OCc1ccccc1 (stereo unspecified)
-0.0798
COc1ccc([Si](C)(C)[C@H]2[C@H](CCn3cc([C@H](O)c4ccccc4)nn3)O[C@@]3(C(=O)N(Cc4ccc(N5CCOC5=O)cc4)c4ccccc43)[C@@H]2C)cc1
-0.186
O=C(N1CCCCC1)[C@@]1(Cc2ccccc2)COC(c2ccc(OCCCO)cc2)=N1
0.313
C=C(C(=O)CC[C@H](OC(=O)c1cccnc1)c1cccc(OCCO)c1)C(C)C
-0.161

Batch request: composite z-score per item, same order as input.
1. O=C1OCCC=C[C@H]2OC34C=CCN(c5ccc(Cl)cc5)C(=O)[C@H]3N(CCCCCO)C(=O)[C@@H]4C12 (stereo partly specified)
2. C=CC[C@]12N=C(c3ccc(OCCCO)cc3)O[C@H]1c1ccccc1N(C)C2=O
3. CCOC(=O)C[C@H]1[C@H](OC(=O)c2ccc(-c3ccccc3)cc2)[C@@H](NC(=O)c2ccc3ccccc3n2)c2cc(OCCCO)ccc2N1C(=O)c1ccccc1
4. O=C1OC[C@@H](c2ccccc2)N2CC(/C=C/c3ccccc3)=CC12 (stereo partly specified)
5. COc1cc2c(cc1OC)CN(C(=O)[C@@H]1[C@H]3C(=O)O[C@H](c4ccccc4)[C@H](c4ccccc4)N3[C@H](c3ccccc3OCCO)[C@@]13C(=O)Nc1ccc(C#CC4(O)CCCCCC4)cc13)CC2
6. COC(=O)[C@H](Cc1ccccc1)N1CC(/C=C/C2CC2)=C[C@@H]1[C@@H](O)Cc1ccccc1

Reply:
[-0.0714, 0.0424, -0.0613, -0.189, -0.0859, -0.166]

---

Please go through the items and note down their z-score.
# assay-explanation: RPMI8226 myeloma cell viability, profiling panel, resazurin fluorescence, basal, 24 h, PK04 Diversity Set (AID 1180);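 also: RPMI8826 multiple myeloma cell line at 5000 cells per well; test concentration not given here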
# assay-setup: higher = more signal
Give bare numbers.

Here are 3 compounds together with their reported answers.
COCCOC(=O)N1C(=O)[C@@]2(c3cc(C#CC4=CCCCC4)ccc31)[C@H](C(=O)N1CCN(c3ncccn3)CC1)[C@H]1C(=O)O[C@H](c3ccccc3)[C@H](c3ccccc3)N1[C@@H]2c1ccc(O)cc1
-0.765
O=C1C[C@@](C(=O)NCC(F)(F)F)(c2ccc([N+](=O)[O-])cc2)[C@@H](c2ccc(CO)cc2)N1C1CCCCC1
-0.12
CO[C@H]1O[C@H](CO)[C@@H](OC(=O)c2ccc(Br)cc2)[C@@H]2OC(=O)[C@@H](Cc3ccc4ccccc4c3)C/C=C/C[C@H](Cc3ccc4ccccc4c3)C(=O)O[C@@H]12
0.402

Next up:
Task item: What value of z-score has been recorded for this entry: `Cc1c(NC(=O)/C(C#N)=C/C=C/c2ccccc2[N+](=O)[O-])c(=O)n(-c2ccccc2)n1C`
Reply: -1.73

---

# assay-explanation: mitochondrial membrane potential change in A549 cells, profiling panel, cell-based, JC-1 fluorescence, basal, 24 h, 100 nL (AID 1138);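 also: A549 lung adenocarcinoma cells under basal conditions with no added stimulus; test concentration not given here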
# assay-setup: higher = more signal
Quick rule: z-score of at least -0.2 means yes, below that means no.

Field: example entries. Status: answers known.
CCOC(=O)C[C@H]1[C@H](OC(=O)c2ccc(-c3ccccc3)cc2)[C@@H](NC(=O)C2CCCCC2)c2cc(OCCCO)ccc2N1C(=O)c1ccccc1
yes
COCCCNC(=O)[C@]1(Cc2ccccc2N=[N+]=[N-])N=C(c2ccc(OCCCO)cc2)O[C@@H]1c1ccccc1N=[N+]=[N-]
no
C[C@]1(C(=O)O)c2ccccc2C(=O)N(Cc2ccccc2)[C@H]1c1ccc(CO)cc1
yes
C[C@]12C(=O)N(CCCCCCO)[C@@H]3C(=O)N(c4ccc(Cl)cc4)CC=CC31O[C@@H]1/C=C\CCCOC(=O)C12 (some centres not stated)
yes
COCCOC(=O)N1C(=O)[C@@]2(c3ccccc31)[C@H](c1ccc(OCCO)cc1)N1[C@H](c3ccccc3)[C@H](c3ccccc3)OC(=O)[C@H]1[C@@H]2C(=O)Nc1nc2ccccc2s1
no

Task item: Check if z-score >= -0.2 (inclusive). Item: CCCCN1CC=CC23O[C@@H]4C=CCOC(=O)[C@@H]4[C@H]2C(=O)N(C(C)CO)[C@@H]3C1=O (some centres not stated)
Reply: no

Task item: Note, next up: `COC(=O)[C@@]1(Cc2ccccc2)[C@H]2c3cc(C(=O)N4CCCC4)[nH]c3C[C@H]2CN1C(=O)c1ccccc1`
Reply: yes

---

# Tested on: Wnt5a (protein binding on small-molecule microarray)
# assay-explanation: Wnt5a binders on small-molecule microarray, primary screen, biophysical, 635/667 nm fluorescence (AID 1142);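 also: fluorescence read at 667 nm with signal to noise per printed feature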
# assay-setup: 635 nm fluorescence, higher = more signal
Quick rule: composite z-score of at least -0.3 means 1 (yes), below that means 0 (no).

C=CC[C@@H](OC(=O)Nc1ccc(OC)cc1)c1ccc(OCCO)cc1
0 (no)
O=C(O)[C@H](Cc1ccccc1)n1cc(-c2ccccn2)nn1
1 (yes)

Task item: Check if composite z-score >= -0.3 (inclusive). Item: CC(=O)n1cc(C(O)C2C=CC3C(=O)N(c4ccccc4)C(=O)C3N2Nc2ccccc2)c2ccccc21 (stereo not given)
Reply: 1 (yes)

Task item: Note, next up: `Cc1ccc(S[C@]2(C(=O)NC(C)C)CC(=O)N(C3Cc4ccccc4C3)[C@@H]2c2ccc(CO)cc2I)cc1`
Reply: 0 (no)

Task item: Note, next up: `C[C@]1(C(=O)O)c2ccccc2C(=O)N(Cc2ccccc2)[C@H]1c1ccc(CO)cc1`
Reply: 0 (no)

---

# study-target: Torsin-1A-interacting protein 1 (Homo sapiens)
# assay-explanation: LAP1 binders from COS7 cell lysate, primary screen, small-molecule microarray, 635/667 nm fluorescence (AID 1116)
# assay-setup: COS7-hLAP1 lysate binding, 635 nm fluorescence, higher = more signal
Please go through the items and note down their composite z-score.
Numbers only.

COc1ccccc1CN1C(=O)c2ccccc2[C@](Cc2ccccc2I)(C(=O)NC(C)C)[C@@H]1c1ccc(CO)cc1
0.855
[N-]=[N+]=NCc1ccccc1C[C@@]1(C(N)=O)N=C(c2ccc(OCCCO)cc2)O[C@@H]1c1ccccc1CN=[N+]=[N-]
0.623
C=CCC(OC(C)=O)[C@@H]1[C@@H](N(Cc2cc3ccccc3o2)C(=O)c2ccc(C)cc2)c2cc(OCCCO)ccc2N1C(=O)Cc1ccc2ccccc2c1 (some centres undefined)
0.102

Next up:
Task item: What value of composite z-score has been recorded for this entry: `CCCc1cccc(=O)o1`
Reply: 0.898

---

# System: Sam68 (KHDRBS1)
# assay-explanation: Sam68 small-molecule binders, primary screen, biochemical, small-molecule microarray, 635 nm fluorescence (AID 1125);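 also: score merges 667 nm channel intensity with signal to noise over triplicate slides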
# assay-setup: small-molecule microarray binding, higher = more signal
Please go through the items and note down their composite z-score.
Give bare numbers.

CN1C(=O)C2C(C1=O)C1C=C(c3ccc(CO)cc3)C2C(c2cccs2)N1Cc1cccc(OC(F)(F)F)c1 (configuration not stated)
1.28
CC(C)(C)OC(=O)CC[C@]1(C(=O)O)N=C(c2ccc(OCCCO)cc2)O[C@H]1c1ccccc1
-0.612
CCOC(=O)C[C@H]1[C@H](OC(=O)c2ccc(-c3ccccc3)cc2)[C@@H](NC(=O)c2ccc3ccccc3c2)c2cc(OCCCO)ccc2N1C(=O)c1ccc2ccccc2n1
1.04

Batch request: composite z-score per item, same order as input.
1. O=C1O[C@@H](c2ccccc2)[C@@H](c2ccccc2)N2[C@@H](c3ccc(O)cc3)[C@]3(C(=O)Nc4ccc(C#CCCO)cc43)[C@@H](C(=O)NC[C@H](O)c3ccccc3)[C@H]12
2. CCOC(=O)C1=CC[C@@H](c2ccccc2C(F)(F)F)N(S(=O)(=O)c2ccc(C)cc2)C1

Reply:
1: 0.249; 2: 1.1

Batch request: composite z-score per item, same order as input.
1. CCOC(=O)C1=CC[C@@H](c2ccccc2)N(S(=O)(=O)c2ccc(C)cc2)C1
2. COC(=O)[C@]1(CCS(=O)(=O)c2ccccc2)N=C(c2ccc(OCCCO)cc2)O[C@@H]1c1ccccc1CN=[N+]=[N-]

Reply:
1. 0.143
2. 1.29

---

# assay-explanation: P. aeruginosa biofilm formation inhibitors, primary screen, PAO1 strain, BacTiter-Glo luminescence, LB-PBS (AID 1144)
# assay-setup: 12 h, higher = more signal
Activity calls are given as the source filed them. How the calls were made is not given here.
Please go through the items and note down their z-score.

Here are 3 compounds together with their reported answers.
COCCOC(=O)N1C(=O)[C@@]2(c3cc(C#Cc4ccc(OC)cc4)ccc31)[C@H](C(=O)N1CCN(c3ncccn3)CC1)[C@H]1C(=O)O[C@H](c3ccccc3)[C@H](c3ccccc3)N1[C@@H]2c1ccccc1OCCO
-1.1 (inactive)
C=C(COC)/C(=C/C[C@@H](OC(=O)c1ccncc1)c1cccc(OCCO)c1)c1cnc2ccccc2c1
-0.639 (inactive)
COc1ccc([Si](C)(C)[C@@H]2[C@@H](CCO)O[C@]3(C(=O)N(Cc4cccc(N5C(=O)c6cccc7cccc5c67)c4)c4ccccc43)[C@H]2C)cc1
0.568 (inactive)

Next up:
Task item: What value of z-score has been recorded for this entry: `Cc1ccc(S[C@]2(C(=O)O)CC(=O)N(Cc3ccccc3Cl)[C@@H]2c2ccc(CO)cc2)cc1`
Reply: 0.596 (inactive)
